- assay-text: 1-Octanol-sodium citrate buffer distribution coefficient, log D of the compound at pH 5.5 by shake-flask method
- Assay type: physicochemical
- assay-conditions: 1-octanol/sodium citrate buffer, read-out: logD
endpoint-label: logD
# print the numeric value only

Solved entries:
>>> test_result("Cc1ccc(C(=O)c2ccc(CC(=O)O)n2C)cc1 [TOLMETIN]")
0.8
>>> test_result("CCCCC1=NC2(CCCC2)C(=O)N1Cc1ccc(-c2ccccc2-c2nnn[nH]2)cc1 [IRBESARTAN]")
2.4
>>> test_result("CC(=O)c1ccc(S(=O)(=O)NC(=O)NC2CCCCC2)cc1 [ACETOHEXAMIDE]")
1.3
>>> test_result("CCOC(=O)[C@H](CCc1ccccc1)N[C@@H](C)C(=O)N1CCC[C@H]1C(=O)O")
-0.5

# ---- query molecule ----
Challenge: Name the recorded logD for Cc1ccc(S(=O)(=O)NC(=O)NN2CCCCCC2)cc1 [TOLAZAMIDE] .
Response given: 1.2

These entries and their values trace back to ChEMBL document CHEMBL1777735.
